- TEST NAME: Test compounds' PK assay in ICR mice
- Format: in vivo
- CONDITIONS: mouse, plasma, po, 10 mg/kg, read-out: F (absolute bioavailability)
OBSERVED PROPERTY: bioavailability (%)
One number for each entry, in %.

[
  {
    "COMPOUND": "CCOC(=O)C1=C(CN2CCOC(CCC(=O)O)C2)NC(c2nccs2)=NC1c1ccc(F)cc1Br (centres unmarked)",
    "OBSERVED PROPERTY": "bioavailability",
    "DATA VALUE": 65.2
  }
]

Ask: bioavailability for CCOC(=O)C1=C(CN2CCOC(CC(=O)O)C2)NC(c2nccs2)=NC1c1ccc(F)cc1Br (centres unmarked) ?
Reply: 74.2

###

- TEST NAME: Test compounds' PK assay in ICR mice
- Type: in vivo
- CONDITIONS: mouse, plasma, iv, 10 mg/kg, AUC in 0-24 hours
OBSERVED PROPERTY: AUC(0-t) (ng·h/mL)
Give bare numbers, in ng·h/mL.

Ask: AUC(0-t) for CCOC(=O)C1=C(CN2CCOC(CC(=O)O)C2)NC(c2nccs2)=NC1c1ccc(F)cc1Br (stereo not shown) ?
Reply: 10600

###

Exercise: state measured AUC(0-inf) for each of the molecules provided.
- TEST NAME: Test compounds' PK assay in ICR mice
- Format: in vivo
- CONDITIONS: mouse, plasma, po, 10 mg/kg, AUC in 0 hour to infinite time
- Description: The test compounds were poured into ICR mice stomach through mouth with 10 mg/kg or administered 2 mg/kg or 10 mg/kg to ICR mice by tail-intravenous injection. Blood sample of orbital vein was taken at 0.083, 0.25, 0.5, 1, 2, 4, 6, 8 and 24 hours after administration, and collected in anticoagulation tube added with EDTA-K2. […] Quantitation was performed using multiple reaction monitoring (MRM). Pharmacokinetic parameters were calculated using WinNonlin 6.1 software with non compartment model.
One number for each entry, in ng·h/mL.

[
  {
    "MOLECULE": "CCOC(=O)C1=C(CN2CCOC(CC(=O)O)C2)NC(c2nccs2)=NC1c1ccc(F)cc1Br (centres unmarked)",
    "AUC(0-inf), ng·h/mL": 8160
  }
]

Let us examine a further case.
Ask: AUC(0-inf) for CCOC(=O)C1=C(CN2CCOC(CCC(=O)O)C2)NC(c2nccs2)=NC1c1ccc(F)cc1Br (centres unmarked) ?
Reply: 5350

###

- System: HBV
- TEST NAME: In-vitro anti-HBV activity in stable HBV-producing cell line (HepG2.2.15), HBV DNA in culture fluid by qPCR
- Format: cell-based
- CONDITIONS: Hepatitis B virus, 168 h; 500 nmol final concentration, HepG2.2.15 cells, HBV DNA in culture media on day 7 post seeding, vs DMSO control; read-out: HBV (% Inh.) (500 nmol)
OBSERVED PROPERTY: inhibition at 0.5 µM
Lab note: write values as number then unit, every time.

[
  {
    "COMPOUND": "CCOC(=O)C1=C(CN2CCOC[C@@H]2CO)NC(c2nccs2)=NC1c1ccc(F)cc1Br (stereo partly drawn) [Example 40]",
    "inhibition at 0.5 µM": "95%"
  },
  {
    "COMPOUND": "CCOC(=O)C1=C(CN2CC(C)(C)OC[C@H]2C(=O)O)NC(c2nccs2)=NC1c1ccc(Cl)cc1Cl (stereo partly drawn) [Example 21]",
    "inhibition at 0.5 µM": "51.2%"
  },
  {
    "COMPOUND": "CCOC(=O)C1=C(CN2CCOC[C@H]2C(=O)NCCO)NC(c2nccs2)=NC1c1ccc(F)cc1Br (stereo partly drawn) [Example 54]",
    "inhibition at 0.5 µM": "91%"
  },
  {
    "COMPOUND": "CCOC(=O)C1=C(CN2CCOCC2C(=O)O)NC(c2nccs2)=NC1c1ccc(F)cc1Br (stereo not drawn) [Example 3]",
    "inhibition at 0.5 µM": "84.5%"
  },
  {
    "COMPOUND": "CCOC(=O)C1=C(CN2CCOC[C@H]2COC(=O)[C@@H](N)C(C)C)NC(c2nccs2)=NC1c1ccc(F)cc1Br (stereo partly drawn) [Example 49]",
    "inhibition at 0.5 µM": "96.2%"
  },
  {
    "COMPOUND": "CCOC(=O)C1=C(CN2CCOCC2C(=O)O)NC(c2nncs2)=NC1c1ccc(Cl)cc1Cl (stereo not drawn) [Example 70]",
    "inhibition at 0.5 µM": "63.6%"
  }
]

Here are 4 compounds. What values of inhibition at 0.5 µM were reported for them?
1. CCOC(=O)C1=C(CN2CCOCC2C(=O)NC(C)C)NC(c2nccs2)=NC1c1ccc(Cl)cc1Cl (stereo not drawn) [Example 81]
2. CCOC(=O)C1=C(CN2CCOCC2C(N)=O)NC(c2nccs2)=NC1c1ccc(F)cc1Br (stereo not drawn) [Example 25]
3. CCOC(=O)C1=C(CN2CCOCC2C(=O)O)NC(c2ncc(F)s2)=NC1c1ccc(Cl)cc1Cl (stereo not drawn) [Example 122]
4. COC(=O)C1=C(CN2CCOC(C(=O)O)C2)NC(c2nccs2)=NC1c1ccc(F)cc1Cl (stereo not drawn) [Example 13]

Reply:
1. 91.9%
2. 91.9%
3. 46.2%
4. 54.5%

Here are 8 compounds. What values of inhibition at 0.5 µM were reported for them?
1. CCOC(=O)C1=C(CN2CCOC(C(=O)O)C2)NC(c2nccs2)=NC1c1ccc(F)cc1Cl (stereo not drawn) [Example 10]
2. CCOC(=O)C1=C(CN2CCOCC2C(=O)NC(C)C)NC(c2nccs2)=NC1c1ccc(F)cc1Br (stereo not drawn) [Example 82]
3. CCOC(=O)C1=C(CN2CCOCC2C(=O)O)NC(c2nncs2)=NC1c1ccc(F)cc1Br (stereo not drawn) [Example 71]
4. CCOC(=O)C1=C(CN2CCOCC2C(=O)O)NC(c2nc(C(F)(F)F)cs2)=NC1c1ccc(Cl)cc1Cl (stereo not drawn) [Example 119]
5. CCOC(=O)C1=C(CN2CCOCC2C(=O)O)NC(c2ncc(F)s2)=NC1c1ccc(F)cc1Cl (stereo not drawn) [Example 121]
6. CCOC(=O)C1=C(CN2CCOCC2C(=O)O)NC(c2nccs2)=NC1c1ccccc1[N+](=O)[O-] (stereo not drawn) [Example 2]
7. CCOC(=O)C1=C(CN2CCOC(CCC(=O)O)C2)NC(c2nccs2)=NC1c1ccc(F)cc1Br (stereo not drawn) [Example 129]
8. CCOC(=O)C1=C(CN2CCOCC2C(=O)O)NC(c2nccs2)=NC1c1ccc(F)cc1Cl (stereo not drawn) [Example 4]

Reply:
1. 89.7%
2. 96%
3. 43.4%
4. 94%
5. 48.5%
6. 31.3%
7. 92%
8. 90%

###

Exercise: state measured inhibition at 0.5 µM for each of the molecules provided.
- Tested on: HBV
- TEST NAME: In-vitro anti-HBV activity in stable HBV-producing cell line (HepG2.2.15), HBV DNA in culture fluid by qPCR
- Type: cell-based
- CONDITIONS: Hepatitis B virus, 168 h; 500 nmol final concentration, HepG2.2.15 cells, HBV DNA in culture media on day 7 post seeding, vs DMSO control; read-out: HBV (% Inh.) (500 nmol)
Answers are plain numbers, in %.

[
  {
    "MOLECULE": "CCOC(=O)C1=C(CN2CCOCC2C(=O)O)NC(c2nccn2C)=NC1c1ccc(F)cc1Br (stereo not drawn)",
    "SUBJECT OF TEST": "HBV",
    "UNIT INFO": "%",
    "DATA VALUE": 92.5
  },
  {
    "MOLECULE": "CCOC(=O)C1=C(CN2CCOCC2C(N)=O)NC(c2nccs2)=NC1c1ccc(F)cc1Cl (stereo not drawn)",
    "SUBJECT OF TEST": "HBV",
    "UNIT INFO": "%",
    "DATA VALUE": 96
  },
  {
    "MOLECULE": "CCOC(=O)C1=C(CN2CCOC(CC(=O)O)C2)NC(c2nccs2)=NC1c1ccc(F)cc1Br (stereo not drawn)",
    "SUBJECT OF TEST": "HBV",
    "UNIT INFO": "%",
    "DATA VALUE": 91.7
  },
  {
    "MOLECULE": "CCOC(=O)C1=C(CN2CCOC[C@H]2C(=O)NO)NC(c2nccs2)=NC1c1ccc(F)cc1Br (stereo partly drawn)",
    "SUBJECT OF TEST": "HBV",
    "UNIT INFO": "%",
    "DATA VALUE": 89.5
  },
  {
    "MOLECULE": "CCOC(=O)C1=C(CN2CCOCC2C(=O)NC)NC(c2nccs2)=NC1c1ccc(F)cc1Br (stereo not drawn)",
    "SUBJECT OF TEST": "HBV",
    "UNIT INFO": "%",
    "DATA VALUE": 95.8
  }
]

Here are 2 molecules. What values of inhibition at 0.5 µM were reported for them?
1. CCOC(=O)C1=C(CN2CCOCC2C(=O)OCOC(=O)OC(C)C)NC(c2nccs2)=NC1c1ccc(Cl)cc1Cl (stereo not drawn)
2. CCOC(=O)C1=C(CN2CCO[C@H](COC(=O)C(N)C(C)C)C2)NC(c2nccs2)=NC1c1ccc(F)cc1Br (stereo in doubt)

Reply:
[91.9, 94.7]
